The reported numbers originate from ChEMBL document CHEMBL5058577.

system: Fibroblast; test: Multiplex assay against human fibroblast; type: toxicity, cell-based; settings: 48 h, 10 µM, compound concentration 10 uM, replicate 1
Non-standard residues stand in square brackets, D forms with d. Residues, ends and D or L forms follow the SMILES beside them.
readout.name: Population Healthy Nuclei (%)

[
  {
    "molecule": "COc1cc(OC2CCN(C(C)=O)CC2)ccc1C(=O)N1CCC(N2C(=O)OCc3ccccc32)CC1",
    "readout.name": "Population Healthy Nuclei (%)",
    "result": "79%"
  },
  {
    "molecule": "CN1CCN2c3ccccc3Cc3ccccc3C2C1.Cl (centres undefined) [MIANSERIN HYDROCHLORIDE]",
    "readout.name": "Population Healthy Nuclei (%)",
    "result": "71%"
  },
  {
    "molecule": "COCCCN1CCC(NC(=O)c2cc(Cl)c(N)c3c2OCC3)CC1 [PRUCALOPRIDE]",
    "readout.name": "Population Healthy Nuclei (%)",
    "result": "66%"
  },
  {
    "molecule": "CN(C)C(=O)Cn1cc(-c2ccc(-c3nnc4ccccn34)cc2)cn1",
    "readout.name": "Population Healthy Nuclei (%)",
    "result": "66%"
  },
  {
    "molecule": "Cc1sc2c(c1C)C(c1ccc(Cl)cc1)=N[C@H](CC(=O)OC(C)(C)C)c1nnc(C)n1-2",
    "readout.name": "Population Healthy Nuclei (%)",
    "result": "66%"
  },
  {
    "molecule": "Nc1nc(-c2ccco2)c2cnn(Cc3ccccc3F)c2n1",
    "readout.name": "Population Healthy Nuclei (%)",
    "result": "65%"
  },
  {
    "molecule": "CN1CCN(c2ccc(Nc3c4ccccc4nc4ccccc34)cc2)CC1.Cl.Cl.O",
    "readout.name": "Population Healthy Nuclei (%)",
    "result": "15%"
  },
  {
    "molecule": "CC(C)C[C@@H]1NC(=O)[C@@H](C(C)C)NC(=O)[C@@H]2CCCN2C(=O)[C@@H](CC(=O)O)NC(=O)[C@@H](Cc2c[nH]c3ccccc23)NC1=O [BQ-123] (cyclo(L[dW][dD]P[dV]))",
    "readout.name": "Population Healthy Nuclei (%)",
    "result": "59%"
  },
  {
    "molecule": "O=c1ccc2ccc(OCCCCN3CCN(c4cccc5sccc45)CC3)cc2[nH]1",
    "readout.name": "Population Healthy Nuclei (%)",
    "result": "50%"
  },
  {
    "molecule": "O=C(NCCNCC(O)COc1ccc(O)cc1)N1CCOCC1.O=C(NCCNCC(O)COc1ccc(O)cc1)N1CCOCC1.O=C(O)/C=C/C(=O)O (centres undefined) [XAMOTEROL FUMARATE]",
    "readout.name": "Population Healthy Nuclei (%)",
    "result": "62%"
  },
  {
    "molecule": "Cl.Cl.OCCOCCN1CCN(C(c2ccccc2)c2ccc(Cl)cc2)CC1 (centres undefined) [HYDROXYZINE HYDROCHLORIDE]",
    "readout.name": "Population Healthy Nuclei (%)",
    "result": "69%"
  },
  {
    "molecule": "COc1cc(Nc2ncc3c(n2)-c2ccc(Cl)cc2C(c2c(F)cccc2OC)=NC3)ccc1C(=O)O",
    "readout.name": "Population Healthy Nuclei (%)",
    "result": "35%"
  },
  {
    "molecule": "COCCn1c(C)c(C)s/c1=N\\C(=O)C1C(C)(C)C1(C)C",
    "readout.name": "Population Healthy Nuclei (%)",
    "result": "56%"
  },
  {
    "molecule": "CC(C)(O)C(=O)N1CCN(c2ccc(C(F)(F)F)c(C3=C(c4c[nH]c5ccccc45)C(=O)NC3=O)c2)CC1",
    "readout.name": "Population Healthy Nuclei (%)",
    "result": "27%"
  },
  {
    "molecule": "Cc1c(Cc2ccc3ccccc3n2)c2cc(F)ccc2n1CC(=O)O",
    "readout.name": "Population Healthy Nuclei (%)",
    "result": "75%"
  },
  {
    "molecule": "COC(c1ccccc1)(c1ccccc1)[C@H](Oc1nc(C)cc(C)n1)C(=O)O",
    "readout.name": "Population Healthy Nuclei (%)",
    "result": "71%"
  },
  {
    "molecule": "CN(C)C/C=C/C(=O)Nc1ccc(C(=O)N2CCCC(Nc3ncc(Cl)c(-c4c[nH]c5ccccc45)n3)C2)cc1 (centres undefined)",
    "readout.name": "Population Healthy Nuclei (%)",
    "result": "20%"
  },
  {
    "molecule": "COc1cc2nc(N3CCN(C(=O)COc4c(OC)cccc4C(C)C)CC3)nc(N)c2cc1OC.Cl.Cl",
    "readout.name": "Population Healthy Nuclei (%)",
    "result": "45%"
  },
  {
    "molecule": "Cn1cc(C(=O)OCC2CCN(CCNS(C)(=O)=O)CC2)c2ccccc21",
    "readout.name": "Population Healthy Nuclei (%)",
    "result": "58%"
  },
  {
    "molecule": "CCCCCCNC(=O)Nc1ccc(S(=O)(=O)Nc2ccc(CCNC[C@H](O)COc3ccc(O)cc3)cc2)cc1",
    "readout.name": "Population Healthy Nuclei (%)",
    "result": "69%"
  },
  {
    "molecule": "COc1ccc2c(c1OCc1ccccc1)C[C@@H](C(=O)O)N(C(=O)C(c1ccccc1)c1ccccc1)C2",
    "readout.name": "Population Healthy Nuclei (%)",
    "result": "69%"
  },
  {
    "molecule": "O=C(Nc1cc(-c2ccccc2)nn1-c1ccccc1F)c1ccc([N+](=O)[O-])cc1",
    "readout.name": "Population Healthy Nuclei (%)",
    "result": "70%"
  },
  {
    "molecule": "Cc1cc(NC(=O)NCCN2CCC(O)(Cc3ccccc3)CC2)c2ccccc2n1",
    "readout.name": "Population Healthy Nuclei (%)",
    "result": "69%"
  },
  {
    "molecule": "CCC(=O)OCC(=O)[C@@]1(OC(=O)CC)[C@@H](C)C[C@H]2[C@@H]3CCC4=CC(=O)C=C[C@]4(C)[C@@]3(Cl)[C@@H](O)C[C@@]21C [BECLOMETHASONE DIPROPIONATE]",
    "readout.name": "Population Healthy Nuclei (%)",
    "result": "54%"
  },
  {
    "molecule": "Cc1cc(O)c(-c2ccc([C@@H](C)CN(C)C)cc2)c2c1[nH]c(=O)c1sccc12",
    "readout.name": "Population Healthy Nuclei (%)",
    "result": "53%"
  },
  {
    "molecule": "COc1ccc2[nH]c(I)c(CCNC(C)=O)c2c1",
    "readout.name": "Population Healthy Nuclei (%)",
    "result": "56%"
  },
  {
    "molecule": "O=C(O)CCC/C=C\\CC1C(O)CC(O)C1/C=C/C(O)COc1cccc(Cl)c1 (centres undefined)",
    "readout.name": "Population Healthy Nuclei (%)",
    "result": "57%"
  },
  {
    "molecule": "CCc1nn2c(C)cc(C)nc2c1Cc1ccc(-c2nnc(C3CCNCC3)o2)cc1",
    "readout.name": "Population Healthy Nuclei (%)",
    "result": "62%"
  },
  {
    "molecule": "CC(C)(C)c1ccc(CSc2cnn(C(C)(C)C)c(=O)c2Cl)cc1",
    "readout.name": "Population Healthy Nuclei (%)",
    "result": "62%"
  },
  {
    "molecule": "OCCCNc1cc(-c2ccnc(Nc3cccc(Cl)c3)n2)ccn1",
    "readout.name": "Population Healthy Nuclei (%)",
    "result": "39%"
  },
  {
    "molecule": "COc1c(Nc2ccc(S(C)(=O)=O)nc2C)ncnc1OC1CCN(C(=O)OC(C)C)CC1",
    "readout.name": "Population Healthy Nuclei (%)",
    "result": "58%"
  },
  {
    "molecule": "Cc1nn(C)c2nc(NNC(=O)Nc3cc(Cl)nc(Cl)c3)cc(C(C)C)c12",
    "readout.name": "Population Healthy Nuclei (%)",
    "result": "70%"
  },
  {
    "molecule": "CN1CCC(C(=O)c2cccc(NC(=O)c3c(F)cc(F)cc3F)n2)CC1",
    "readout.name": "Population Healthy Nuclei (%)",
    "result": "71%"
  },
  {
    "molecule": "CCCCC[C@H](O)/C=C/[C@H]1[C@H](O)CC(=O)[C@@H]1CCCCCCC(=O)O",
    "readout.name": "Population Healthy Nuclei (%)",
    "result": "62%"
  }
]

----------
system: Fibroblast; experiment: Multiplex assay against human fibroblast; format: toxicity, cell-based; settings: 12 h, 10 µM, compound concentration 10 uM, replicate 2
Catalogue of Total Cell Count values

[
  {
    "compound": "CN1CCN(c2ccc(Nc3c4ccccc4nc4ccccc34)cc2)CC1.Cl.Cl.O",
    "Total Cell Count": 177
  },
  {
    "compound": "O=C(O)CCC/C=C\\CC1C(O)CC(O)C1/C=C/C(O)COc1cccc(Cl)c1 (stereo not drawn)",
    "Total Cell Count": 105
  },
  {
    "compound": "Cl.Cl.OCCOCCN1CCN(C(c2ccccc2)c2ccc(Cl)cc2)CC1 (stereo not drawn) [HYDROXYZINE HYDROCHLORIDE]",
    "Total Cell Count": 178
  },
  {
    "compound": "COc1ccc2[nH]c(I)c(CCNC(C)=O)c2c1",
    "Total Cell Count": 157
  },
  {
    "compound": "CN1CCC(C(=O)c2cccc(NC(=O)c3c(F)cc(F)cc3F)n2)CC1",
    "Total Cell Count": 142
  },
  {
    "compound": "CN1C[C@H](C(=O)N[C@]2(C)O[C@@]3(O)[C@@H]4CCCN4C(=O)[C@H](Cc4ccccc4)N3C2=O)C[C@@H]2c3cccc4[nH]cc(c34)C[C@H]21.CS(=O)(=O)O [DIHYDROERGOTAMINE MESYLATE]",
    "Total Cell Count": 114
  },
  {
    "compound": "C=CCN1C[C@H](C(=O)N(CCCN(C)C)C(=O)NCC)C[C@@H]2c3cccc4[nH]cc(c34)C[C@H]21",
    "Total Cell Count": 178
  },
  {
    "compound": "Cc1cc(-c2ccc3c(c2)CC[C@H]3N2CC3(CCN(C(=O)Cc4cn5cc(C)sc5n4)CC3)C2)ncn1",
    "Total Cell Count": 138
  }
]
